Origin of measurements: ChEMBL document CHEMBL4321882

Please go through the items and note down their pIC50.
- target.system: E3 ubiquitin-protein ligase Mdm2 (Homo sapiens, UniProt Q00987)
- Sequence (Q00987 whole entry): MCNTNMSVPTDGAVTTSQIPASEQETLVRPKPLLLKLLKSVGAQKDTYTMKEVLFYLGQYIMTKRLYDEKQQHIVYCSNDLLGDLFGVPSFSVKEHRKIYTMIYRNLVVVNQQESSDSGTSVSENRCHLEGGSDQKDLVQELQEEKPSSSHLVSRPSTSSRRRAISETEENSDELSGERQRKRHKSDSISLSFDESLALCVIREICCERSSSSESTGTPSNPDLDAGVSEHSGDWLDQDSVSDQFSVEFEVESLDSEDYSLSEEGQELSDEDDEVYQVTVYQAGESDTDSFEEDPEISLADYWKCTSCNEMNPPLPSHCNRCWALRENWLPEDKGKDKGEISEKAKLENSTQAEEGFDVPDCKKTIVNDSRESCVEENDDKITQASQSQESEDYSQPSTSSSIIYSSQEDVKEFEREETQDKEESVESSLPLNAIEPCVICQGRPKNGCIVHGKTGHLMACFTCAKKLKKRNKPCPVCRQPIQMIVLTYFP
- method.notes: Binding affinity to human MDM2 expressed in Escherichia coli expression system by using (FITC)-labeled p53 peptide based fluorescence polarization competitive assay
- setup.conditions: read-out: IC50
Answers are plain numbers, as −log10 of the molar value.

The following molecules have reported results that may help.
smiles.notation	pIC50
CC(=O)N[C@@H](CC(C)C)CN(CC(=O)N[C@@H](Cc1ccccc1)CN(CC(=O)N[C@@H](CCC(=O)O)CN1CC(=O)N[C@@H](Cc2c[nH]c3ccccc23)CN(S(C)(=O)=O)CC(=O)N[C@@H](CCCCN)CN(CC(=O)N[C@@H](CC(C)C)CN(CC(=O)N[C@@H](C)CN(CC(N)=O)S(C)(=O)=O)S(=O)(=O)CC(C)C)S(=O)(=O)CC/C=C/CCCCS1(=O)=O)S(C)(=O)=O)S(=O)(=O)c1ccc(Cl)cc1	5.44
CC(=O)N[C@@H](CC(C)C)CN(CC(=O)N[C@@H](Cc1ccccc1)CN(CC(=O)N[C@@H](CCC(=O)O)CN(CC(=O)N[C@@H](Cc1c[nH]c2ccccc12)CN(CC(=O)N[C@@H](CCCCN)CN(CC(=O)N[C@@H](CC1CCC1)CN(CC(=O)N[C@@H](C)CN(CC(N)=O)S(C)(=O)=O)S(=O)(=O)CC(C)C)S(C)(=O)=O)S(C)(=O)=O)S(C)(=O)=O)S(C)(=O)=O)S(=O)(=O)c1ccc(Cl)cc1	6.05
CC(=O)N[C@@H](CC(C)C)CN(CC(=O)N[C@@H](Cc1ccccc1)CN(CC(=O)N[C@@H](CCC(=O)O)CN(CC(=O)N[C@@H](Cc1c[nH]c2ccccc12)CN(CC(=O)N[C@@H](CCCCN)CN(CC(=O)N[C@@H](CC(C)C)CN(CC(=O)N[C@@H](C)CN(CC(N)=O)S(C)(=O)=O)S(=O)(=O)CC(C)C)S(C)(=O)=O)S(C)(=O)=O)S(C)(=O)=O)S(C)(=O)=O)S(=O)(=O)c1ccc(Cl)cc1	5.55

// switching to the query molecule
Item `CC(=O)N[C@@H](CC(C)C)CN(CC(=O)N[C@@H](Cc1ccccc1)CN(CC(=O)N[C@@H](CCC(=O)O)CN1CC(=O)N[C@@H](Cc2c[nH]c3ccccc23)CN(S(C)(=O)=O)CC(=O)N[C@@H](CCCCN)CN(CC(=O)N[C@@H](CC(C)C)CN(CC(=O)N[C@@H](C)CN(CC(N)=O)S(C)(=O)=O)S(=O)(=O)CC(C)C)S(=O)(=O)CCCC/C=C/CCCCS1(=O)=O)S(C)(=O)=O)S(=O)(=O)c1ccc(Cl)cc1` : provide pIC50
5.72

###

- target.system: Cellular tumor antigen p53 (Homo sapiens)
- method.notes: Activation of p53 in human U2OS cells cotransfected with BP100-luc and CMV-lacZ gene assessed as luciferase gene expression at 30 uM incubated for 18 hrs by p53-dependent luciferase transcriptional activation assay
- Format: cell-based
Active and inactive are the calls of the source. The calls are words filed in the database; no cut-off is given here.
property.name: Activity

smiles.notation	target.system	property.name	endpoint.result
CC(=O)N[C@@H](CC(C)C)CN(CC(=O)N[C@@H](Cc1ccccc1)CN(CC(=O)N[C@@H](CCC(=O)O)CN(CC(=O)N[C@@H](Cc1c[nH]c2ccccc12)CN(CC(=O)N[C@@H](CCCCN)CN(CC(=O)N[C@@H](CC(C)C)CN(CC(=O)N[C@@H](C)CN(CC(N)=O)S(C)(=O)=O)S(=O)(=O)CC(C)C)S(C)(=O)=O)S(C)(=O)=O)S(C)(=O)=O)S(C)(=O)=O)S(=O)(=O)c1ccc(Cl)cc1	Cellular tumor antigen p53 (Homo sapiens)	Activity	Active
CC(=O)N[C@@H](CC(C)C)CN(CC(=O)N[C@@H](Cc1ccccc1)CN(CC(=O)N[C@@H](CCC(=O)O)CN(CC(=O)N[C@@H](Cc1c[nH]c2ccccc12)CN(CC(=O)N[C@@H](CCCCN)CN(CC(=O)N[C@@H](CC1CCC1)CN(CC(=O)N[C@@H](C)CN(CC(N)=O)S(C)(=O)=O)S(=O)(=O)CC(C)C)S(C)(=O)=O)S(C)(=O)=O)S(C)(=O)=O)S(C)(=O)=O)S(=O)(=O)c1ccc(Cl)cc1	Cellular tumor antigen p53 (Homo sapiens)	Activity	Active
CC(=O)N[C@@H](CC(C)C)CN(CC(=O)N[C@@H](Cc1ccccc1)CN(CC(=O)N[C@@H](CCC(=O)O)CN1CC(=O)N[C@@H](Cc2c[nH]c3ccccc23)CN(S(C)(=O)=O)CC(=O)N[C@@H](CCCCN)CN(CC(=O)N[C@@H](CC(C)C)CN(CC(=O)N[C@@H](C)CN(CC(N)=O)S(C)(=O)=O)S(=O)(=O)CC(C)C)S(=O)(=O)CC/C=C/CCCCS1(=O)=O)S(C)(=O)=O)S(=O)(=O)c1ccc(Cl)cc1	Cellular tumor antigen p53 (Homo sapiens)	Activity	25%
CC(=O)N[C@@H](CC(C)C)CN(CC(=O)N[C@@H](Cc1ccccc1)CN(CC(=O)N[C@@H](CCC(=O)O)CN1CC(=O)N[C@@H](Cc2c[nH]c3ccccc23)CN(S(C)(=O)=O)CC(=O)N[C@@H](CCCCN)CN(CC(=O)N[C@@H](CC(C)C)CN(CC(=O)N[C@@H](C)CN(CC(N)=O)S(C)(=O)=O)S(=O)(=O)CC(C)C)S(=O)(=O)CCCC/C=C/CCCCS1(=O)=O)S(C)(=O)=O)S(=O)(=O)c1ccc(Cl)cc1	Cellular tumor antigen p53 (Homo sapiens)	Activity	70%
